System: Liver
Experimental protocol: Intrinsic clearance in rat hepatic S9 fraction at 5 uM in presence of UDPGA/NADPH measured over 30 mins by LC/MS analysis
Type: ADME, tissue-based
Measurement setup: s9, 0.5 h
Quantity name: CLH

Record smiles: CCNc1nonc1/C(=N/O)Nc1ccc(F)c(Br)c1
Reported result: > 36.7 mL/min/kg

Response field CLH (Liver) for item `CN(C)c1nonc1/C(=N/O)Nc1ccc(F)c(Br)c1` : > 36.7 mL/min/kg

Response field CLH (Liver) for item `O/N=C(\Nc1ccc(F)c(Br)c1)c1nonc1NCc1ccccc1` : > 36.7 mL/min/kg

Response field CLH (Liver) for item `Nc1nonc1C(=NO)Nc1ccc(F)c(Cl)c1` : > 36.7 mL/min/kg

Response field CLH (Liver) for item `CNc1nonc1/C(=N/O)Nc1ccc(F)c(Br)c1` : > 36.7 mL/min/kg

Response field CLH (Liver) for item `COCCNc1nonc1/C(=N/O)Nc1ccc(F)c(Br)c1` : > 36.7 mL/min/kg

Response field CLH (Liver) for item `OCCNc1nonc1/C(=N/O)Nc1ccc(F)c(Br)c1` : > 36.7 mL/min/kg
